target: NaV1.8 (Homo sapiens); experiment: Activity against NaV 1.8 channel (Table 4); format: cell-based
Below, each entry is listed alongside its reported IC50.

Study these solved cases before continuing.
{"compound": "CC(C)COC(=O)N1CCN(c2cccc(-c3ccccc3O)c2)CC1 [Compound 3]", "target-system": "NaV1.8 (Homo sapiens)", "IC50": "> 15 µM"}
{"compound": "CC(C)CC(O)C(=O)N1CCN(c2cccc(-c3ccccc3O)c2)CC1 (stereo not drawn) [Compound 1]", "target-system": "NaV1.8 (Homo sapiens)", "IC50": "> 15 µM"}

Consider now this further compound.
Field IC50 (entry CC(C)C[C@@H](O)C(=O)N1CCN(c2cccc(-c3ccccc3C(F)F)c2)CC1 [Compound 2] ) reads < 10 µM
